Molecular target: full-length beta-Catenin (Uniprot ID P35222) (Homo sapiens (Human)) (UniProt P35222)
Sequence (P35222 whole entry): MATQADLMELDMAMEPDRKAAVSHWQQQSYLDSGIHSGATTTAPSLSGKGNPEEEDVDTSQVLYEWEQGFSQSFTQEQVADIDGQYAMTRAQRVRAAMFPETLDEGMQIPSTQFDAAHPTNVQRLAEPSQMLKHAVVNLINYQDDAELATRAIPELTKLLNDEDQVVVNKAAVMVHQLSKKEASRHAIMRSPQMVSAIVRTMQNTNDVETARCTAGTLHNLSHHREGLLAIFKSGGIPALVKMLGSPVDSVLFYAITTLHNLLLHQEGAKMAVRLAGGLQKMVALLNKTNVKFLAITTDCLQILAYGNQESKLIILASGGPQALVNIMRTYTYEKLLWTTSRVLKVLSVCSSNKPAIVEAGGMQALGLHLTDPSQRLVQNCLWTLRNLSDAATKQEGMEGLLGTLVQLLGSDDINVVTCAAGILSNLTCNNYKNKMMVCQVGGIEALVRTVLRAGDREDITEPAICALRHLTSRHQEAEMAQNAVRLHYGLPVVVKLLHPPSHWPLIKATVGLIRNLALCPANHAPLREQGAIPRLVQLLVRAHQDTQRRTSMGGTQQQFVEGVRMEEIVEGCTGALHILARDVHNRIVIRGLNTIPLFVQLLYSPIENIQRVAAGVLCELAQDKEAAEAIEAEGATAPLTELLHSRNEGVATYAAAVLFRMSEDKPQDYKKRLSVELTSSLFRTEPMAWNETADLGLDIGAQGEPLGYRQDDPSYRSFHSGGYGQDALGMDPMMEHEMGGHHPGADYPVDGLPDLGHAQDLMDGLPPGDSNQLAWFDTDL
Assay: fluorescence polarization competition; displacement of 5FAM-TCF4(10-53) from full-length beta-catenin
Starred links: 1 amine or outer side, 2 acyl side, 3 side chain; linkers in the order of their positions; H or OH if unused. Positions of bridges follow the written chain, without caps; N, C: chain ends. Non-standard residues stand in square brackets, D forms with d. Primed or numbered codes have the meaning given here. PyrS2″ = (S)-3-amino-1-((pent-4-en-1-yloxy)carbonyl)pyrrolidine-3-carboxylic acid (stapling residue), C=CCCCOC(=O)N1CC[C@@](N[*:1])(C(=O)[*:2])C1; B5(5) = 2,2-bis(4-pentenyl)glycine, 2-amino-2-(pent-4-en-1-yl)hept-6-enoic acid (stitching residue), C=CCCCC(CCCC=C)(N[*:1])C(=O)[*:2]; PyrS2 = (S)-3-amino-1-((pent-4-en-1-yloxy)carbonyl)pyrrolidine-3-carboxylic acid, C=CCCCOC(=O)N1CC[C@@](N[*:1])(C(=O)[*:2])C1; B5(12) = 2-amino-2-(pent-4-en-1-yl)hept-6-enoic acid (two olefin side chains), C=CCCCC(CCCC=C)(N[*:1])C(=O)[*:2]; B5(3) = 2,2-bis(4-pentenyl)glycine (stitching residue), C=CCCCC(CCCC=C)(N[*:1])C(=O)[*:2]; Phe(2-OMe) = COc1ccccc1C[C@H](N)C(=O)O; Bta = N[C@@H](Cc1csc2ccccc12)C(=O)O; αAllylPro = C=CC[C@@]1(C(=O)O)CCCN1; tBuAla = CC(C)(C)C[C@H](N)C(=O)O; 3Thi = N[C@@H](Cc1ccsc1)C(=O)O
value_kind: IC50 (nM)

Ac-[αAllylPro]D[tBuAla][B5(3)]DDAAFS[PyrS2″][Phe(2-OMe)][Bta]S-NH2 (staple 1-4, 4-11) [I-1103] : 15
Ac-[αAllylPro]DT[B5(5)]DDAAFL[PyrS2″][3Thi][Bta]Q-NH2 (staple 1-4, 4-11) [I-1515: Ac-PL3-Asp-Thr-B5-Asp-Asp-Ala-Ala-Phe-Leu-PyrS2-3Thi-BztA-Gln-NH2] : 24
Ac-[αAllylPro]D[tBuAla][B5(12)]DNAAFL[PyrS2][3Thi][Bta]Q-NH2 (staple 1-4, 4-11) [I-856] : 17
